Tested on: Ba/F3 cells harboring BCR-ABL E255K
protocol.summary: Ba/F3 proliferation, BCR-ABL E255K
Format: cell-based
recorded.conditions: 48 hrs, IL-3 withdrawn
readout.kind: IC50 (nM)
Give the quantity in nM, number only.

Record summary for Cc1csc(-c2cncc(-c3ccnc(Nc4cc(NC(=O)c5ccc(CN6CCN(C)CC6)cc5)ccc4C)n3)c2)n1 [Compound 8290] : reported IC50 = 80.4

Record summary for Cc1ccc(-c2cncc(-c3ccnc(Nc4cc(NC(=O)c5ccc(CN6CCN(C)CC6)cc5)ccc4C)n3)c2)nc1 [Compound 820] : reported IC50 = 204

Record summary for Cc1ccc(NC(=O)c2ccc(CN3CCN(C)CC3)cc2)cc1Nc1nccc(-c2cncc(-c3nccs3)c2)n1 [Compound 8270] : reported IC50 = 45.9

Record summary for Cc1cc(NC(=O)C2=NN=C(c3cncc(-c4ccnc(Nc5cc(NC(=O)c6ccc(CN7CCN(C)CC7)cc6)ccc5C)n4)c3)C2)[nH]n1 [Compound 113] : reported IC50 = 46.9

Record summary for Cc1cc(-c2cncc(-c3ccnc(Nc4cc(NC(=O)c5ccc(CN6CCN(C)CC6)cc5)ccc4C)n3)c2)sn1 [Compound 8190] : reported IC50 = 390

Record summary for Cc1ccc(NC(=O)c2ccc(CN3CCN(C)CC3)cc2)cc1Nc1nccc(-c2cncc(-c3ccn(C)n3)c2)n1 [Compound 832] : reported IC50 = 90.9

Record summary for Cc1cnc(-c2cncc(-c3ccnc(Nc4cc(NC(=O)c5ccc(CN6CCN(C)CC6)cc5)ccc4C)n3)c2)s1 [Compound 8280] : reported IC50 = 234

Record summary for Cc1cc(NC(=O)C2=NN=C(c3cncc(-c4ccnc(Nc5cc(NC(=O)c6ccc(CN7CCN(C)CC7)cc6)ccc5C)n4)c3)C2)ccn1 [Compound 103] : reported IC50 = 196

---

Tested on: untransduced Ba/F3 cells grown in the presence of IL-3
protocol.summary: Ba/F3 proliferation, parental cells (Cell Titer Glo)
Type: cell-based
recorded.conditions: 48 hrs, with IL-3
readout.kind: IC50 (nM)
Give the quantity in nM, number only.

- structure.string: "Cc1cc(NC(=O)C2=NN=C(c3cncc(-c4ccnc(Nc5cc(NC(=O)c6ccc(CN7CCN(C)CC7)cc6)ccc5C)n4)c3)C2)[nH]n1"
  readout.kind: "IC50"
  unit.abbreviation: "nM"
  readout.value: 2060

Record summary for Cc1cc(-c2cncc(-c3ccnc(Nc4cc(NC(=O)c5ccc(CN6CCN(C)CC6)cc5)ccc4C)n3)c2)sn1 : reported IC50 = 2240

Record summary for Cc1ccc(NC(=O)c2ccc(CN3CCN(C)CC3)cc2)cc1Nc1nccc(-c2cncc(-c3ccn(C)n3)c2)n1 : reported IC50 = 2480

---

System: untransduced Ba/F3 cells grown in the presence of IL-3
protocol.summary: Ba/F3 proliferation, parental cells (Cell Titer Glo)
Type: cell-based
recorded.conditions: 48 hrs, with IL-3
Reported IC50 values follow for various molecules

Before answering, review these 4 worked examples.
- structure.string: "Cc1cc(NC(=O)C2=NN=C(c3cncc(-c4ccnc(Nc5cc(NC(=O)c6ccc(CN7CCN(C)CC7)cc6)ccc5C)n4)c3)C2)ccn1"
  readout.value: "2920 nM"
- structure.string: "Cc1cnc(-c2cncc(-c3ccnc(Nc4cc(NC(=O)c5ccc(CN6CCN(C)CC6)cc5)ccc4C)n3)c2)s1"
  readout.value: "2610 nM"
- structure.string: "Cc1ccc(NC(=O)c2ccc(CN3CCN(C)CC3)cc2)cc1Nc1nccc(-c2cncc(-c3nccs3)c2)n1"
  readout.value: "2520 nM"
- structure.string: "Cc1csc(-c2cncc(-c3ccnc(Nc4cc(NC(=O)c5ccc(CN6CCN(C)CC6)cc5)ccc4C)n3)c2)n1"
  readout.value: "2580 nM"

Now for another entry.
Record summary for Cc1ccc(-c2cncc(-c3ccnc(Nc4cc(NC(=O)c5ccc(CN6CCN(C)CC6)cc5)ccc4C)n3)c2)nc1 : reported IC50 = 2480 nM
